# target: T1, Macaca fascicularis (mf) RET.mmh (Macaca fascicularis)
# T1 construct: also called monkey RET
# T1 chain: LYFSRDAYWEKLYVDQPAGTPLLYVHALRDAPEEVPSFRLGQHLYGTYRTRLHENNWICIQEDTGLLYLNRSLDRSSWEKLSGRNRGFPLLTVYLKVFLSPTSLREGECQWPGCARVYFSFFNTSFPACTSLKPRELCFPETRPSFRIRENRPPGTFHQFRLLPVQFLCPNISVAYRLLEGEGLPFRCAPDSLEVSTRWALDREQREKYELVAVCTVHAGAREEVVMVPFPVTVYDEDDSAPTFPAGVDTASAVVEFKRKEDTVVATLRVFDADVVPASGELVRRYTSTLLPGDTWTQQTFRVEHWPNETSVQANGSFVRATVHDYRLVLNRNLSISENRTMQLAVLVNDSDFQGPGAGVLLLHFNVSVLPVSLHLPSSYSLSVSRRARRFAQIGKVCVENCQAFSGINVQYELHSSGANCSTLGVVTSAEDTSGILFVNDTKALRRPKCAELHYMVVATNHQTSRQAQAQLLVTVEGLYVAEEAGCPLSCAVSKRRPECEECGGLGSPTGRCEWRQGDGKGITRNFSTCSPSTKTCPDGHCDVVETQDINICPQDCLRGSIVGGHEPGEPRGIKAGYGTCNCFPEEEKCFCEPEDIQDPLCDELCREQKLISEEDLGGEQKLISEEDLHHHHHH
# assay.procedure: SPR Biacore T200, mAb capture, 25 C
assay.readout: koff (s⁻¹)
The reply should contain only the number, in s⁻¹.

binder	units.of.measure	koff
H4H8046P (antibody, human IgG4, V domains shown, human IgG4 Fc (H4H prefix)) VH: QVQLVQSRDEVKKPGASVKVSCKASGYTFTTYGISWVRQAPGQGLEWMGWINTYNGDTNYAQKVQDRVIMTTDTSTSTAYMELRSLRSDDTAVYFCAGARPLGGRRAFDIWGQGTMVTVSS VL: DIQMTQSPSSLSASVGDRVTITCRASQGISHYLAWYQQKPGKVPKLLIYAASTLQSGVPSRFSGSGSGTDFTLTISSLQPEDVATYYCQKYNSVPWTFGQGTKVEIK	s⁻¹	0.000315
H4H8058P (antibody, human IgG4, V domains shown, human IgG4 Fc (H4H prefix)) VH: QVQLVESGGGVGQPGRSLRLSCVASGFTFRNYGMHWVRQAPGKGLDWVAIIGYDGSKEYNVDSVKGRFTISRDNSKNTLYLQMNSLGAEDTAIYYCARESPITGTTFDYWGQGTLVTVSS VL: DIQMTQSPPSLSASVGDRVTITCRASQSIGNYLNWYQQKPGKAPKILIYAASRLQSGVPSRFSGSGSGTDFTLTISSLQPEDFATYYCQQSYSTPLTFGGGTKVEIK	s⁻¹	0.00054

Lookup: Please report the recorded koff for H4H8066P (antibody, human IgG4, V domains shown, human IgG4 Fc (H4H prefix)) VH: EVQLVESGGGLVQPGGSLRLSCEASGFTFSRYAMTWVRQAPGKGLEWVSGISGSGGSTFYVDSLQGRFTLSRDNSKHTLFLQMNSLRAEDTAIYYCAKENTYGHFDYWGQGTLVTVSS VL: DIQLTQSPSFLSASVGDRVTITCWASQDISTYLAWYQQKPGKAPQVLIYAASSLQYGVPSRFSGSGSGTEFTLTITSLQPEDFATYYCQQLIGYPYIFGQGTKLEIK .
Found: 0.000882
